assayed-target: T1, recombinant protein CDH6 (UniProt P55285 54-615)
T1 construct: also called CDH6 recombinant protein; CDH6 antigen
T1 sequence (looked up): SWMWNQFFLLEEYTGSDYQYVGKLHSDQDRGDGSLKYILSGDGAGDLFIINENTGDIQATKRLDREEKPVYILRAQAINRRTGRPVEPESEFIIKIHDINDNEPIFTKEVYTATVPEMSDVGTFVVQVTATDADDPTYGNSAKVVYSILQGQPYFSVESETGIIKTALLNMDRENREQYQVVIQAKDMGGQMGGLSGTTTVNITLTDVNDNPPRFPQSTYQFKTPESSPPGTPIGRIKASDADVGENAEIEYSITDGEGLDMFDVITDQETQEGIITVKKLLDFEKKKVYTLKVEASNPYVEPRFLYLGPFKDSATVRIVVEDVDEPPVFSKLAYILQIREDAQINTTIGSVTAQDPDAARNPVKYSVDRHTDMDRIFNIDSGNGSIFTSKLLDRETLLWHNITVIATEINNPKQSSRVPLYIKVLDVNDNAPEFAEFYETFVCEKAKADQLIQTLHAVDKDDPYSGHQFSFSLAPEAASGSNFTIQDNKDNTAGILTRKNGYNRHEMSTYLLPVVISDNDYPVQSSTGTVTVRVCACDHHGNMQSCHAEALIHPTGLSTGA
assay-procedure: ELISA, CDH6 coated; antibody 100 ng/mL
Measured OD450, listed per entry.
Hi! Could you send only the number? It should be in OD450, unit omitted.

**Query** Provide OD450 value for the following binder: CL069707 antibody (antibody, V domains shown, Mouse monoclonal antibody from hybridoma, purified from ascites with Protein A/G; also called #23; No. 23) VH: EVHLVESGGGLVQPKGSLKLSCVASGFTFTTYAMNWVRQAPGKGLEWVARIRIKNNNYATYYADSVTDRFTISRDDSQSMLYLQMNNLKTEDTAMYYCVRPDYGNYGLAYWGQGTLVTVSA VL: EIVLTQSPTTMAASPGEKITITCSASSSISSHYLHWYQQKPGFSPKLLIYRSFYLASGVPLRFTGSGSGTSYSLTIGTMEAEDVATYYCQQDIVPLTFGAGTKLELK
**Result** 1.41

**Query** Provide OD450 value for the following binder: CL069439 antibody (antibody, V domains shown, Mouse monoclonal antibody from hybridoma, purified from ascites with Protein A/G; also called #16; No. 16) VH: EVQLQQSGTELVRTGASVKISCKASGYSFTGYYIHWIKQSHGESLEWIGYISCFNGDTSYNQNFKDRATFNVDTSSSTAYMQFISLTSEDSAVYYCVRGRYGNFNYFDYWGQGTTLTVSS VL: DIVLTQSPASLAVSLGQRATISCRASESVEFYGTSLMQWFQQKPGHPPQLLIYATSNVDSGVPARFSASGSGTDFSLNIHPVEEADIAMYFCQQSRRIPWTFGGGTKLEIK
**Result** 3.9

API: the following record is the query input.
**Query** Provide OD450 value for the following binder: CL069463 antibody (antibody, V domains shown, Mouse monoclonal antibody from hybridoma, purified from ascites with Protein A/G; also called #13; No. 13) VH: EVQLVESGGGLVQPKGSLKLSCAASGFTFNTYALTWVRQAPGKGLEWVGRIKSKNKDYETYYADSVKDRFTISRNDSQSLLYLQMNNLKTEDTAIYYCVRQNWNYFDYWGQGTTLTVSS VL: DIQMTQSPASLAASVGETVTITCRASENIYYSLAWYQQRQGKSPQLLIYNANSLKDGVPSRFSGSGSGTQYSMKINSMQPEDTATYFCQQAYDVPPTFGGGTKLEIK
**Result** 2.62
